# stated_conditions: in n-butanol, 283.15 K
measure_name: solubility (mole fraction)
Numbers only.

Lookup: Look up and report measured solubility (mole fraction) for this entry: CCCN(CCc1cccs1)[C@H]1CCc2c(O)cccc2C1
Found: 0.0105

###

# stated_conditions: in n-propyl acetate, 278.15 K
measure_name: solubility (mole fraction)
Give bare numbers.

Lookup: Determine its reported solubility (mole fraction): CCCN(CCc1cccs1)[C@H]1CCc2c(O)cccc2C1
Found: 0.0247

###

# stated_conditions: in n-propyl acetate, 293.15 K
measure_name: solubility (mole fraction)
Answers are plain numbers.

Lookup: Give solubility (mole fraction) for the following compound: CCCN(CCc1cccs1)[C@H]1CCc2c(O)cccc2C1
Found: 0.0435

###

# stated_conditions: in n-propanol, 293.15 K
measure_name: solubility (mole fraction)
Answers are plain numbers.

Lookup: Write down solubility (mole fraction) measured for item CCCN(CCc1cccs1)[C@H]1CCc2c(O)cccc2C1
Found: 0.0138

###

# stated_conditions: in n-butyl acetate, 288.15 K
measure_name: solubility (mole fraction)
Answers are plain numbers.

Lookup: Write down solubility (mole fraction) measured for item CCCN(CCc1cccs1)[C@H]1CCc2c(O)cccc2C1
Found: 0.0433

###

# stated_conditions: in n-butyl acetate, 278.15 K
measure_name: solubility (mole fraction)

Lookup: Tell me measured solubility (mole fraction) for CCCN(CCc1cccs1)[C@H]1CCc2c(O)cccc2C1 please.
Found: 0.0311

###

# stated_conditions: in n-butanol, 303.15 K
measure_name: solubility (mole fraction)
Numbers only.

Lookup: Identify measured solubility (mole fraction) associated with CCCN(CCc1cccs1)[C@H]1CCc2c(O)cccc2C1
Found: 0.0306

###

# stated_conditions: in methanol, 313.15 K
measure_name: solubility (mole fraction)
One number for each entry.

Lookup: Quote solubility (mole fraction) reported for CCCN(CCc1cccs1)[C@H]1CCc2c(O)cccc2C1 please.
Found: 0.0248

###

# stated_conditions: in ethanol, 283.15 K
measure_name: solubility (mole fraction)
Answers are plain numbers.

Lookup: Look up solubility (mole fraction) of CCCN(CCc1cccs1)[C@H]1CCc2c(O)cccc2C1 and report it.
Found: 0.00398

###

# stated_conditions: in methanol, 283.15 K
measure_name: solubility (mole fraction)
One number for each entry.

Lookup: Return reported solubility (mole fraction). Input molecule: CCCN(CCc1cccs1)[C@H]1CCc2c(O)cccc2C1
Found: 0.00249

###

# stated_conditions: in isopropanol, 283.15 K
measure_name: solubility (mole fraction)

Lookup: Tell me solubility (mole fraction) reported for CCCN(CCc1cccs1)[C@H]1CCc2c(O)cccc2C1
Found: 0.00418

###

# stated_conditions: in isopropyl acetate, 288.15 K
measure_name: solubility (mole fraction)

Lookup: Supply recorded solubility (mole fraction) for CCCN(CCc1cccs1)[C@H]1CCc2c(O)cccc2C1 here.
Found: 0.0314

###

# stated_conditions: in methyl acetate, 308.15 K
measure_name: solubility (mole fraction)

Lookup: Give me measured solubility (mole fraction), please, for this compound: CCCN(CCc1cccs1)[C@H]1CCc2c(O)cccc2C1
Found: 0.0482

###

# stated_conditions: in n-propanol, 288.15 K
measure_name: solubility (mole fraction)

Lookup: Tell me its solubility (mole fraction) given CCCN(CCc1cccs1)[C@H]1CCc2c(O)cccc2C1 as the entry.
Found: 0.0103

###

# stated_conditions: in isopropyl acetate, 283.15 K
measure_name: solubility (mole fraction)
Give bare numbers.

Lookup: Return solubility (mole fraction) (reported value) for this compound: CCCN(CCc1cccs1)[C@H]1CCc2c(O)cccc2C1
Found: 0.0257
